Origin of the recorded values: patent US11802111B2

Target: human MGL from HeLa cells (Homo sapiens (Human))
Sequence (Q99685 whole entry): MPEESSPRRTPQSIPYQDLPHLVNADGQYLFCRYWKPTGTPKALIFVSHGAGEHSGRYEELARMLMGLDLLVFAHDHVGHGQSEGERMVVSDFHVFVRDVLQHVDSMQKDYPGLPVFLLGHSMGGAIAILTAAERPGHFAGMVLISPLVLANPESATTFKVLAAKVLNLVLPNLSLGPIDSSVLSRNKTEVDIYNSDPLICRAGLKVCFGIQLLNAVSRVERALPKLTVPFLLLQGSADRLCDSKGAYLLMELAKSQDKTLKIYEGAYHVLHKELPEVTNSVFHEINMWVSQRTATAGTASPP
Experiment: MGL in vitro activity assay ([glycerol-1,3-3H]-oleoyl glycerol hydrolysis, activated carbon filtration)
Conditions: 300 nM [Glycerol-1,3-3H]-oleoyl glycerol, one hour

molecule: C[C@]1(O)C[C@@H](C(=O)N2CC3(CC[C@H](c4ccc(C(F)(F)F)cc4)C3)C2)C1 (stereo in doubt)
unit_of_measure: nM
IC50: 24
//
molecule: C[C@]1(O)C[C@@H](C(=O)N2CC3(CCC(Cc4cccc(OC(F)F)c4)CC3)C2)C1
unit_of_measure: nM
IC50: 38
//
molecule: Cc1ccc(C2CC3(C2)CN(C(=O)[C@H]2C[C@@](C)(O)C2)C3)cc1C1CC1
unit_of_measure: nM
IC50: 47
//
molecule: COc1cccc(C2CCC3(CC2)CN(C(=O)[C@H]2C[C@@](C)(O)C2)C3)c1
unit_of_measure: nM
IC50: 32
